ASSAY_TEXT: Zeta-potential measurement
Format: physicochemical
STUDY_CONDITIONS: zeta-potential of peptide; source data of Figure 2C
I'd appreciate it if you could label each record using Zeta-Potential / mV and these ranges: band 1 (below -9 mV), band 2 (-9 mV to below 10 mV), band 3 (10 mV or more)

>  <SUBSTANCE>
QCKFKFQF

>  <GROUP_LABEL>
band 3

$$$$
>  <SUBSTANCE>
FKFDKFKFDK

>  <GROUP_LABEL>
band 2

$$$$
>  <SUBSTANCE>
EIEIQINM

>  <GROUP_LABEL>
band 1

$$$$
>  <SUBSTANCE>
CHLHLQL

>  <GROUP_LABEL>
band 1

$$$$
>  <SUBSTANCE>
CEFEFQFNMWQ

>  <GROUP_LABEL>
band 1

$$$$
>  <SUBSTANCE>
FDPFDPFDP

>  <GROUP_LABEL>
band 2

$$$$
>  <SUBSTANCE>
QCKIKIQI

>  <GROUP_LABEL>
band 3

$$$$
>  <SUBSTANCE>
KIKIQINMW

>  <GROUP_LABEL>
band 3

$$$$
>  <SUBSTANCE>
KIKIKIKIWWWW

>  <GROUP_LABEL>
band 3

$$$$
>  <SUBSTANCE>
KFKFEFEF

>  <GROUP_LABEL>
band 2

$$$$

Values compiled from paper PMC10447463.
